Where do these numbers come from? They come from patent US7998965B2.

- test-target: recombinant human catalytic domain of MMP-14 (Homo sapiens)
- Construct: 177 amino acids corresponding to Tyr89-Gly265 of mature human enzyme
- test-protocol: In vitro fluorescence assay of MMP-14 activity
- test-settings: Table 1; unit inferred
pIC50: −log10 of the molar value.
metric: pIC50

The following compounds have reported results that may help.
* O=C(O)CC[C@H](NC(=O)c1ccc(-c2ccccc2)cc1)C(=O)NCc1ccc(F)c(C(F)(F)F)c1 [Example 8NNN] | < 4.30
* O=C(O)CC[C@H](NC(=O)c1ccc(-c2ccccc2)cc1)C(=O)NC1CCCCCCC1 [Example 8E] | ~4.60
* COc1cccc(CCNC(=O)[C@H](CCC(=O)NO)NC(=O)c2ccc(-c3ccccc3)cc2)c1 [Example 33C] | 6.96
* O=C(O)CC[C@H](NC(=O)c1ccc(-c2ccccc2)cc1)C(=O)NC1C2CC3CC(C2)CC1C3 (stereo partly shown) [Example 8H] | ~4.60
* CN(C)c1ccc(CNC(=O)[C@H](CCC(=O)O)NC(=O)c2ccc(-c3ccccc3)cc2)cc1 [Example 8ZZZ] | < 3.70

Each compound below has a reported value. Please supply its pIC50.
1. COc1cc(CNC(=O)[C@H](CCC(=O)NO)NC(=O)c2ccc(-c3ccccc3)cc2)cc(OC)c1OC [Example 33A]
2. CC(C)(Cc1ccccc1)NC(=O)[C@H](CCC(=O)O)NC(=O)c1ccc(-c2ccccc2)cc1 [Example 8PP]

A)
1. 6.95
2. < 4.18

###

- test-target: purified recombinant human Aggrecanase-1 (rAgg1) (Homo sapiens, UniProt O75173)
- Sequence (O75173 213-837): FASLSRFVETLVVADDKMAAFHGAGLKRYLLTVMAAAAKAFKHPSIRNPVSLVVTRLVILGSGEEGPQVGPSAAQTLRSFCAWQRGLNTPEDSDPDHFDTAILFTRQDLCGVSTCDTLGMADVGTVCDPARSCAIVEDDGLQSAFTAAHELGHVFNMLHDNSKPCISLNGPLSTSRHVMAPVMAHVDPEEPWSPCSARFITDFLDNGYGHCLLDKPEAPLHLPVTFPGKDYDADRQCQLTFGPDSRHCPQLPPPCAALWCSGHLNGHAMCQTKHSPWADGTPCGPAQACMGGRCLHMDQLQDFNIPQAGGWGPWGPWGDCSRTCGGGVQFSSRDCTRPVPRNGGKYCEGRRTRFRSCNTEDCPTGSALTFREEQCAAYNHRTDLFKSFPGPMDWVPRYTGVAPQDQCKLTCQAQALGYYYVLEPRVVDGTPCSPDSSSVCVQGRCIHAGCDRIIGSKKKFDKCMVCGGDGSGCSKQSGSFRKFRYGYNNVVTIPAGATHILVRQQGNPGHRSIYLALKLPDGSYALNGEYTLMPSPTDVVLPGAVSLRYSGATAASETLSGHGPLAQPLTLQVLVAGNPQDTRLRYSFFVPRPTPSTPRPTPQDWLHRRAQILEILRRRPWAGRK
- test-protocol: In vitro fluorescence screen for Aggrecanase-1 inhibitors
- Assay type: biochemical
- test-settings: Table 1; enzyme not given, column follows Agg1 IC50; read-out: Ki
metric: pKi
Answers are plain numbers, as −log10 of the molar value.

* O=C(O)CC[C@H](NC(=O)c1ccc(-c2ccccc2)cc1)C(=O)NCc1cccc(-c2cccs2)c1 [Example 10N] | 7.55
* CC(C)(C)CNC(=O)[C@H](CCC(=O)O)NC(=O)c1ccc(-c2ccccc2)cc1 | 7.22
* O=C(O)CC[C@H](NC(=O)c1ccc(-c2ccccc2)cc1)C(=O)NCc1ccc(F)c(C(F)(F)F)c1 | 6.66
* CC(C)(Cc1ccc(Cl)cc1)NC(=O)[C@H](CCC(=O)O)NC(=O)c1ccc(-c2ccccc2)cc1 | 7.85
* CC(C)(Cc1ccccc1)NC(=O)[C@H](CCC(=O)O)NC(=O)c1ccc(-c2ccccc2)cc1 | 8.00
* C=Cc1cccc(CNC(=O)[C@H](CCC(=O)O)NC(=O)c2ccc(-c3ccccc3)cc2)c1 [Example 10M] | 7.27
* O=C(O)CC[C@H](NC(=O)c1ccc(-c2ccccc2)cc1)C(=O)NCc1ccc(Cl)cc1Cl | 6.61
* COc1cc(CNC(=O)[C@H](CCC(=O)O)NC(=O)c2ccc(-c3ccccc3)cc2)cc(OC)c1 | 7.72

Answer for every listed entry: what is its pKi? The entries follow.
1. COc1cc(CNC(=O)[C@H](CCC(=O)O)NC(=O)c2ccc(-c3ccccc3)cc2)cc(OC)c1OC
2. O=C(O)CC[C@H](NC(=O)c1ccc(-c2ccccc2)cc1)C(=O)NCCCc1ccccc1

A)
[8.30, 7.55]

###

- test-target: purified recombinant human Aggrecanase-2 (Ag2t-Phe628-Strep) (Homo sapiens, UniProt Q9UNA0)
- Construct: the form used is denoted as Ag2t-Phe628-Strep (MW=41,737)
- Sequence (Q9UNA0 262-628): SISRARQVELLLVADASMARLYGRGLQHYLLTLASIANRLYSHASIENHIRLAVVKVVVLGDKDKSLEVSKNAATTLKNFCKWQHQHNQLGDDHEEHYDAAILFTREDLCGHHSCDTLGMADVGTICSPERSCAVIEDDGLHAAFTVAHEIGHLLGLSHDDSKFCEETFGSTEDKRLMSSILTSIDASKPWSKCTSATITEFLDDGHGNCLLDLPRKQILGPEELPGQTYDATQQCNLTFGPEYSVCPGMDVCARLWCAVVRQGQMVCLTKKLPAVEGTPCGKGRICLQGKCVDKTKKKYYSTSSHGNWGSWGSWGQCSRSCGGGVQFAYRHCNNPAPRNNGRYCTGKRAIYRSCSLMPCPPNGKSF
- test-protocol: In vitro fluorescence screen for Aggrecanase-2 inhibitors
- Type: biochemical
- test-settings: Table 2; read-out: Agg 2 IC50
metric: IC50 (nM)
Give bare numbers, in nM.

• COc1cc(CNC(=O)[C@H](CCC(=O)O)NC(=O)c2ccc(-c3ccc(OCc4cc(C)cc(C)c4)cc3)cc2)cc(OC)c1OC [Example 19D] = 223

Q) Determine from records and report IC50 for CCc1ccc(-c2ccc(C(=O)N[C@@H](CCC(=O)O)C(=O)NCc3cc(OC)c(OC)c(OC)c3)cc2)cc1 [Example 17E]
A) 1040
